Biological target: T1, IL13Rα2 Protein, Human, Recombinant, His Tag (human, UniProt Q14627 27-343)
T1 chain: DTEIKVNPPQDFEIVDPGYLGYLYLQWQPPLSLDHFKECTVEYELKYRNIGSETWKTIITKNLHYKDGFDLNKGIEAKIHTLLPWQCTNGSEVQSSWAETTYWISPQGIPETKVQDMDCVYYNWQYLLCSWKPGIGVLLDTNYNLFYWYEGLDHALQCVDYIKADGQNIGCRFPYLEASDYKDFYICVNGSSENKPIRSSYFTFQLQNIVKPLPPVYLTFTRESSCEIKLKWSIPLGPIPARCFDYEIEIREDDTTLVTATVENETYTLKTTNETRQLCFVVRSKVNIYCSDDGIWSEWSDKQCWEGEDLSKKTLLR
Assay: SPR; kinetic
MEASURE NAME: Kd (nM)

Sample answers from the record:
Request: // returns reported Kd for input C7 (protein) PGPVPPSTALSELMEELVNITQNQKAPLCNGSMVWSINLTAGMYCAALESLINVSGCSAIEKTQRMLSGFCPHKVSAGQFSSLHVRDSKIEVAQFVKDLLNHLKALFKEGQFN
Response: 0.272

Request: // returns reported Kd for input C2 (protein) PGPVPPSTADIELIEELINITQNQKAPLCNGSMVWSINLTAGMYCAALESLINVSGCSAIEKTQRMLSGFCPHKVSAGQFSSLHVKKTRIEVAQFVKDLLLHLKKLFKEGQFN
Response: 0.025

P. C10 (protein) PGPVPPSTAHLELIEELINITQNQKAPLCNGSMVWSINLTAGMYCAALESLINVSGCSAIEKTQRMLSGFCPHKVSAGQFSSLHVMDTRIEVAQFVKDLLLHLKKLFKEGQFN
Q. C11 (protein) PGPVPPSTAHRELIEELVNITQNQKAPLCNGSMVWSINLTAGMYCAALESLINVSGCSAIEKTQRMLSGFCPHKVSAGQFSSLHVTGRKIEVAQFVKDLLLHLKKLFKEGQFN
Request: Identify the entry with the smaller Kd: P or Q . State your choice using its label.
Response: Q
